- method.summary: in vivo
- Format: in vivo, dog
- measurement.setup: dog, in vivo, iv
measured.endpoint: selectivity ratio

Sample CN(C)CCOc1ccccc1C=Cc1ccccn1.Cl [A, monohydrochloride] ; selectivity ratio observed: 100 to 200

All values here come from patent US4130650A.
